Taken from patent US20250003951A1.

- Tested on: peptide-responsive T cells from post-transplant blood
- assay.notes: Flow cytometry immunophenotyping of peptide-responsive T cells (IFNγ, TNFα, CD107a) after 12-day peptide culture and restimulation
- Assay type: cell-based, human
- measurement.setup: Table 3; post-transplant blood cultured with peptide 12 days, then restimulated

| construct.sequence | CD4/CD8 responses |
| --- | --- |
| VATFPVYTMVAIPIVCKD (listed as Homo sapiens) [OX289-067] | CD8 |
| PLYRQRYQFIKNLVDQHEPK (listed as Homo sapiens) [OX289-074] | CD4 |
| RFRRVSCFLRLGRSTLLELE (listed as Homo sapiens) [OX802-322] | CD4 |
| GETGMFSLSTIRGHQYATY (listed as Homo sapiens) [OX289-284] | CD8 |
| PPLYRQRYQFIKNLVDQHEP (listed as Homo sapiens) [OX289-073] | CD4 |
| GYSPSLHILAIGTRSGAIKL (listed as Homo sapiens) [OX289-052] | CD4 |
| WRVRIALALKGIDYETVPIN (listed as Homo sapiens) [OX885-559] | CD4 |
| TDRALQNKSISAFLVPMPTP (listed as Homo sapiens) [OX289-205] | CD4 |
